Reported residual activity values follow for various compounds
tgt: Solute carrier organic anion transporter family member 1B3 (Homo sapiens, UniProt Q9NPD5)
Sequence (Q9NPD5 whole entry): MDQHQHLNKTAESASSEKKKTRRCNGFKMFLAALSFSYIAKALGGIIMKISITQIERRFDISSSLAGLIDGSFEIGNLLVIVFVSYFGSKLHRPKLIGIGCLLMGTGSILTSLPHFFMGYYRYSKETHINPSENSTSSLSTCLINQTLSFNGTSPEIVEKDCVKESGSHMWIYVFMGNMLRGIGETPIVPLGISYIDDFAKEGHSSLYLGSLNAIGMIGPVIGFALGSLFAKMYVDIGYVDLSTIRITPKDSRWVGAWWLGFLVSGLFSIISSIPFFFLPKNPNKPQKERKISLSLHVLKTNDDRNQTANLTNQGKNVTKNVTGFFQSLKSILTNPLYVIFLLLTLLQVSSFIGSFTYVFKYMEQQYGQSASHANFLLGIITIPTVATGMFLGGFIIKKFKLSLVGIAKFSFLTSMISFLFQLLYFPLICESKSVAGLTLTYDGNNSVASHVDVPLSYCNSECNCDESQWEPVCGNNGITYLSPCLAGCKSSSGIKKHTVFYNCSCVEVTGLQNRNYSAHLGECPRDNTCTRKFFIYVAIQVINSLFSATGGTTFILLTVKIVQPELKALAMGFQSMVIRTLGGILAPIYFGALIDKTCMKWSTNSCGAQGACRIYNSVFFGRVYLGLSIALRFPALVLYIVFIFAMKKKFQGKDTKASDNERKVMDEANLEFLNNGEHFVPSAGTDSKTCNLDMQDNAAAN
protocol.conditions: chinese hamster, cho, 10 µM
Unit % implied. Number only.

Form field: residual activity recorded for COc1ccc2c(c1)[C@@]1(C)CC[C@@H](O)C[C@@H]1CC2 with Solute carrier organic anion transporter family member 1B3 (Homo sapiens, UniProt Q9NPD5) (enter value)
91.61

Find residual activity (Solute carrier organic anion transporter family member 1B3 (Homo sapiens, UniProt Q9NPD5)) for the entry CC(C)N(C(=O)SCC(Cl)=C(Cl)Cl)C(C)C [TRIALLATE]
109.6

Item Cc1cc(=O)c2c(O)cc(O)c(C)c2o1 with Solute carrier organic anion transporter family member 1B3 (Homo sapiens, UniProt Q9NPD5) - residual activity?
101

Lab request: please report residual activity under test system Solute carrier organic anion transporter family member 1B3 (Homo sapiens, UniProt Q9NPD5) for O=C1C(O)=C(O)C(=O)C(O)=C1O
83.15
